Measured values drawn from ChEMBL document CHEMBL1136056 for this set.

- SYSTEM_NAME: Proteinase-activated receptor 1 (Homo sapiens, UniProt P25116)
- Sequence (P25116 whole entry): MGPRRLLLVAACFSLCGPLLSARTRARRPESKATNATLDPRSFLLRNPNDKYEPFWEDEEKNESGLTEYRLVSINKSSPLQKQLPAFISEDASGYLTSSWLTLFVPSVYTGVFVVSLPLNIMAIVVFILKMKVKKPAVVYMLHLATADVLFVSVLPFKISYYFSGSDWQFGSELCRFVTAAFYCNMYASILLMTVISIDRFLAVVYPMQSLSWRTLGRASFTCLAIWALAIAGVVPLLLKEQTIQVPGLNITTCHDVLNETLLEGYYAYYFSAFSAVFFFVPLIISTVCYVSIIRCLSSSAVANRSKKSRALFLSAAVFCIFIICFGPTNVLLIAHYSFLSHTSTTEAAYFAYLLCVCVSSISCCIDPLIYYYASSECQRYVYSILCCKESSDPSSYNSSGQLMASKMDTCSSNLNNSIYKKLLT
- MEASUREMENT_NOTES: Antagonistic activity against thrombin receptor, inhibition of secreted radiolabeled [3H]5-HT from washed human platelets stimulated by 3 uM thrombin receptor activating peptide (TRAP)
- Assay type: functional
QUANTITY: IC50

SMILES_NOTATION: COc1cccc(CN(CCCN2CCCCCCC2)c2cc(-c3ccccc3)no2)c1
IC50: > 10 µM
//
SMILES_NOTATION: COc1cccc(CN(CCCN2CCC2)c2cc(-c3ccccc3)no2)c1
IC50: > 10 µM
//
SMILES_NOTATION: CCCCN(CCCN1CCCCC1)c1cc(-c2ccccc2)no1
IC50: > 40 µM

Input: Give the value of IC50 reported for the following: COc1cccc(CN(CCCC2CCCCC2)c2cc(-c3ccccc3)no2)c1
Output: > 10 µM

Input: Return reported IC50. Input molecule: c1ccc(-c2cc(N(CCCN3CCCCC3)CC3CCCCC3)on2)cc1
Output: > 10 µM
